Cited source for all entries: patent US5593985A

Tested on: Escherichia coli 0 55
Experiment: MIC, standard strain 7
Type: cell-based
Conditions: 055, E. coli 0 55, two-fold dilution, Muller Hinton agar, 10^7 CFU/ml, 37° C., 18 hours, read-out: Minimal Inhibitory Concentration(MIC)
Experimental: In order to illustrate antibiotic effectiveness of the compounds of the present invention, the minimal inhibitory concentrations (MIC's) of the representative compounds were determined against standard strains and compared with ceftazidime and cefpirome, which were used as control compounds. […]
Mark 1 for MIC under 30 µg/mL, -1 if at or over.

CO/N=C(\C(=O)N[C@@H]1C(=O)N2C(C(=O)[O-])=C(C[n+]3ccc(NC=O)c4c3CCC4)CS[C@H]12)c1csc(N)n1 = 1

Report whether reported MIC is lower than 30 µg/mL (strictly) for `CO/N=C(\C(=O)N[C@@H]1C(=O)N2C(C(=O)[O-])=C(C[n+]3ccc(-c4nc(C)cs4)c4c3CCC4)CS[C@H]12)c1csc(N)n1` -1

Hi there! Is MIC for `NC(=O)c1cc[n+](CC2=C(C(=O)[O-])N3C(=O)[C@@H](NC(=O)/C(=N\OCCF)c4csc(N)n4)[C@H]3SC2)c2c1CCC2` below 30 µg/mL, do you know? 1

Does the reported MIC of CO/N=C(\C(=O)N[C@@H]1C(=O)N2C(C(=O)[O-])=C(C[n+]3cccc4c3CCC4)CS[C@H]12)c1csc(N)n1 [cefpirome, reference compound] stay below 30 µg/mL? 1
